Provenance of the data: PubChem BioAssay (NCI)

assay: NCI Yeast Anticancer Drug Screen. Data for the cln2 rad14 strain (AID 165);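 also: 0% = growth equal to vehicle treated cultures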; conditions: S. cerevisiae cln2 rad14 strain, at 50.0 µM
The panel holds about 79,000 compounds, 15% with a hit somewhere; the sample as a whole holds those more often. Activity calls are given as the source filed them. Rule as the data show it: active = growth inhibition above about 70%; inactive = the rest.
Thanks in advance; please answer with one of these: T (active), F (inactive)

query: How was CCC1(C(C)c2ccccc2)C(=O)NC(=O)NC1=O (configuration not stated) classified in this test?
result: F

query: # lookup: test call for "CCCCCCCCCCCCCC(=O)O[C@H]1CC[C@H](NC(=O)[C@H](OC)[C@H](O)[C@@H](O)[C@H](O)/C=C/C(C)C)C(=O)NC1"
result: T

query: Query: recorded result category for "CC12CC3CC(C1)CC(N=[N+]=[N-])(C3)C2" in this test
result: F

query: Would you mind telling me which call this test gave "CCC[CH2][Sn]1([CH2]CCC)[O]C(=O)c2ccc(C)cc2[O]1" ?
result: T

query: Can you look up the reported call for "OCC(Br)(Br)Br" for me?
result: F

query: Called result for COc1cccc(C(O)CN(C)C)c1OC (configuration not stated)
result: F

query: Could you kindly confirm the outcome this assay logged for "C=CCc1cc(C=C(C#N)C#N)cc(OC)c1O" ?
result: F

query: What call does the record list for "Cc1ccc(CI)cc1" ?
result: F

query: For this compound, state the assay outcome: [I][Hg][CH2]C1OCCOC1[CH2][Hg][I] (configuration not stated)
result: T

query: For c1ccc(C2=NCN3CC23c2ccccc2)cc1 (configuration not stated) , what call appears in the results of this test?
result: F

query: Just curious, what result did "CC(=O)c1ccc(N2CCNCC2)cc1" get here?
result: F

query: Hi, sorry to bother you, what did the test record for "ClCc1ccncc1" ?
result: F

----------
assay: NCI Yeast Anticancer Drug Screen. Data for the rad50 strain (AID 155);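 also: 0% = growth of vehicle-only cultures of the same strain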; details: S. cerevisiae rad50 strain growth inhibition; at 50.0 µM; stronger effect = higher value
About 79,000 compounds went through this panel and 15% of them were active in at least one assay; those are over-represented in the sample as a whole.
reportedMetric: growth inhibition (%)
Answer in %, number only, no unit symbol.

query: Return reported growth inhibition. Input compound: O=C(O)C(CSC(c1ccccc1)(c1ccccc1)c1ccccc1)N=Cc1cccs1 (configuration not stated)
result: -8

query: Retrieve growth inhibition measured for NC1C[S][Sn][O]C1=O (configuration not stated) and print it.
result: 14.2

query: Specify reported growth inhibition for the compound shown: "O=[N+]([O-])c1cc([N+](=O)[O-])c(Cl)s1"
result: 99.5

query: Provide only the value of recorded growth inhibition for "c1ccc(N2CCNCC2)nc1"
result: -6.4

query: State its growth inhibition: COC(=O)c1ccccc1NC(=O)C(=O)CC(=O)CC(c1ccccc1)c1c(O)c2ccccc2oc1=O (configuration not stated)
result: -15.7

query: Specify growth inhibition for "O=C([O-])c1ccccc1Nc1ccccn1.O=C([O-])c1ccccc1Nc1ccccn1.[Ni+2]" and stop.
result: -15

query: Let me know recorded growth inhibition for "CCCCCCCCCCCCCCC(=O)[O][Hg][c]1ccccc1" , thanks.
result: 99.2

query: In one line, give reported growth inhibition of the entry "Clc1ccc([As](c2ccc(Cl)cc2)c2ccc(Cl)cc2)cc1" .
result: 77.5

query: Determine from records and report growth inhibition for "CCN(CCCl)c1cccc(NC(=O)c2ccc(C(=O)Nc3cccc(CN(C)C)c3)cc2)c1"
result: 5.55

query: Determine its reported growth inhibition: CCC(C)c1cnc(CC(C)C)c(=O)n1O (configuration not stated)
result: 91

query: Give a short answer stating reported growth inhibition for "ClCCn1c(/C=C/c2nc3ccccc3n2CCCl)nc2ccccc21" .
result: 26.1

query: Give a short answer stating reported growth inhibition for NC(=S)C1=C(N)Oc2c(c(=O)oc3ccccc23)C1c1ccc(Br)cc1 (configuration not stated) .
result: 20.1
